molecular target: PKC isoenzyme γ (Homo sapiens, UniProt P05129); construct: made in house; host or cells: baculovirus-insect cell expression system; experiment: Protein kinase C inhibition assay, PKC isoenzyme γ; format: biochemical; settings: read-out: IC50 PKC γ
measured metric: IC50 (µM)

1. COc1ccc(NS(=O)(=O)c2ccc(N=C3C=C(Nc4ccc(S(=O)(=O)Nc5ccc(OC)nn5)cc4)C(=O)c4ccccc43)cc2)nn1 [Compound 3j]
2. Cc1nnc(NS(=O)(=O)c2ccc(N=C3C=C(Nc4ccc(S(=O)(=O)Nc5nnc(C)s5)cc4)C(=O)c4ccccc43)cc2)s1 [Compound 3e]
Asked: Select one. Lower IC50: 1 or 2 Indicate which entry you chose by stating its label.
Given back: 1
(1: 15 µM, 2: 22 µM)

###

target: PKC isoenzyme βII (Homo sapiens, UniProt P05771); construct: made in house; host or cells: baculovirus-insect cell expression system; assay: Protein kinase C inhibition assay, PKC isoenzyme βII; assay type: biochemical; conditions: read-out: IC50 PKC βII
Sequence (P05771 1-673 isoform P05771-2): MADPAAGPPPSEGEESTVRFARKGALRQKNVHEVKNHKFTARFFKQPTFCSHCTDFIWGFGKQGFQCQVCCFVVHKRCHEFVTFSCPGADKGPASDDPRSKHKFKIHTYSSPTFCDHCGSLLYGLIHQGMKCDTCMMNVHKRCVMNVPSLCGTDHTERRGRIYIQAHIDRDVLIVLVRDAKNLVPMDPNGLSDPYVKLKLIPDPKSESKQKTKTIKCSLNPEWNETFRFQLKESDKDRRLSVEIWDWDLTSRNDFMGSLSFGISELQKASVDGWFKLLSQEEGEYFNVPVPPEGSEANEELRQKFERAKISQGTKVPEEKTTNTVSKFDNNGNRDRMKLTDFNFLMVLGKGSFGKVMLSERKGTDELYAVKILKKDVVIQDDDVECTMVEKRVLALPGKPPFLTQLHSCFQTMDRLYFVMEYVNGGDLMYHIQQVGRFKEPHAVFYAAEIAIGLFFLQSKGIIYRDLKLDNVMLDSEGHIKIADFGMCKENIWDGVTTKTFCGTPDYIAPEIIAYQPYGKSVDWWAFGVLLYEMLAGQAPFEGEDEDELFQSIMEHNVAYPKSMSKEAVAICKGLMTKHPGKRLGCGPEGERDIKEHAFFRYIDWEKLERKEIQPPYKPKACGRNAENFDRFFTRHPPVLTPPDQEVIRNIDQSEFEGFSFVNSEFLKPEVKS
measured metric: IC50 (µM)

1. Cc1cc(NS(=O)(=O)c2ccc(N=C3C=C(Nc4ccc(S(=O)(=O)Nc5cc(C)nc(C)n5)cc4)C(=O)c4ccccc43)cc2)nc(C)n1 [Compound 6d]
2. Cc1nnc(NS(=O)(=O)c2ccc(N=C3C=C(Nc4ccc(S(=O)(=O)Nc5nnc(C)s5)cc4)C(=O)c4ccccc43)cc2)s1 [Compound 3e]
Asked: Endpoint returns the identifier whose IC50 is numerically larger, either 1 or 2 . Refer to your chosen entry by its label in the reply.
Given back: 1
(1: 39 µM, 2: 14 µM)

A. Cc1cc(C)nc(NS(=O)(=O)c2cc(N=C3C=C(Nc4ccc(C)c(S(=O)(=O)Nc5cc(C)cc(C)n5)c4)C(=O)c4ccccc43)ccc2C)c1 [Compound 6ag]
B. Cc1noc(NS(=O)(=O)c2ccc(N=C3C=C(Nc4ccc(S(=O)(=O)Nc5onc(C)c5C)cc4)C(=O)c4ccccc43)cc2)c1C [Compound 6b]
Asked: Please compare: A and B . Report which one has the smaller IC50 value. Kindly give the label for the entry you pick.
Given back: A
(A: 28 µM, B: 50 µM)

###

biological target: PKC isoenzyme ε (Homo sapiens, UniProt Q02156); construct: made in house; host or cells: baculovirus-insect cell expression system; assay: Protein kinase C inhibition assay, PKC isoenzyme ε; assay type: biochemical; settings: IC50 PKC ε
Sequence (Q02156 whole entry): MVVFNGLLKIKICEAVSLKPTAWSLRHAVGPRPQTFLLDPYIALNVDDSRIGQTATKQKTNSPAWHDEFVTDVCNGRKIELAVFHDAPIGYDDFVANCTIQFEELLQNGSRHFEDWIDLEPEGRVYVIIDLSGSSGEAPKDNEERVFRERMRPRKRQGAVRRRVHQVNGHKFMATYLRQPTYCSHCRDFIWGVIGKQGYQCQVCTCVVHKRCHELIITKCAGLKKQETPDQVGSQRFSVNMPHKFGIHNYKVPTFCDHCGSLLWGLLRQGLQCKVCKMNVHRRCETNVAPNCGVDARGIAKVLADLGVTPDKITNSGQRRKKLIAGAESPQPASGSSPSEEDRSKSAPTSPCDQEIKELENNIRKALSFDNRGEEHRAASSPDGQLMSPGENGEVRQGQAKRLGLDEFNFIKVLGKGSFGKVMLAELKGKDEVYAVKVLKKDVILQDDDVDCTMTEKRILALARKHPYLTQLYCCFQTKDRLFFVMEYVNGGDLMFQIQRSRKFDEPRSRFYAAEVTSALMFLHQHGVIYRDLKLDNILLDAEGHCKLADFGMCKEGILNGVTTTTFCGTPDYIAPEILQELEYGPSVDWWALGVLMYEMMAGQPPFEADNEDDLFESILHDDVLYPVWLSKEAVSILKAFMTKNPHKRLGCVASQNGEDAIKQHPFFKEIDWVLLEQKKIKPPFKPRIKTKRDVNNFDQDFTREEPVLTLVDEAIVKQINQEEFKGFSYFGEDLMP
measured metric: IC50

Asked: Fill in the blank: the reported IC50 of O=C1C(Nc2ccc(S(=O)(=O)NCCNc3ccc([N+](=O)[O-])cn3)cc2)=CC(=Nc2ccc(S(=O)(=O)NCCNc3ccc([N+](=O)[O-])cn3)cc2)c2ccccc21 is ____.
Given back: > 150 µM

###

target: PKC isoenzyme βII (Homo sapiens, UniProt P05771); construct: made in house; host or cells: baculovirus-insect cell expression system; assay: Protein kinase C inhibition assay, PKC isoenzyme βII; format: biochemical; details: read-out: IC50 PKC βII
pIC50: −log10 of the molar value.
measured metric: pIC50

Worked cases, pIC50 given:
| molecule | pIC50 |
| --- | --- |
| Cc1cc(NS(=O)(=O)c2ccc(N=C3C=C(Nc4ccc(S(=O)(=O)Nc5cc(C)on5)cc4)C(=O)c4ccccc43)cc2)no1 | 4.62 |
| O=C1C(Nc2ccc(S(=O)(=O)Nc3ccc(Cl)nn3)cc2)=CC(=Nc2ccc(S(=O)(=O)Nc3ccc(Cl)nn3)cc2)c2ccccc21 [Compound 3l] | 4.62 |

a. O=C1C(Nc2ccc(S(=O)(=O)Nc3ccc(Cl)nn3)cc2)=CC(=Nc2ccc(S(=O)(=O)Nc3ccc(Cl)nn3)cc2)c2ccccc21 [Compound 6l]
b. Cc1cc(C)nc(NS(=O)(=O)c2ccc(N=C3C=C(Nc4ccc(S(=O)(=O)Nc5nc(C)cc(C)n5)cc4)C(=O)c4ccccc43)cc2)n1 [Compound 3c]
Asked: Compare a and b by numeric pIC50 and name the larger one. // respond with label for picked entry
Given back: b
(b: 5.15, a: 4.54)

###

tested on: MCF-7 human breast tumor cell line; assay: Human Tumor Cell Growth Inhibition (3H-thymidine incorporation); type: cell-based; conditions: Homo sapiens, MCF7, MCF-7, 24 hrs
pIC50: −log10 of the molar value.
measured metric: pIC50

Recorded pIC50, per entry:
| molecular string | measured metric | experimental result |
| --- | --- | --- |
| O=C1C(Nc2ccc(S(=O)(=O)NCCNc3ccc([N+](=O)[O-])cn3)cc2)=CC(=Nc2ccc(S(=O)(=O)NCCNc3ccc([N+](=O)[O-])cn3)cc2)c2ccccc21 | pIC50 | 6.80 |
| Cc1cc(C)nc(NS(=O)(=O)c2cc(N=C3C=C(Nc4ccc(C)c(S(=O)(=O)Nc5cc(C)cc(C)n5)c4)C(=O)c4ccccc43)ccc2C)c1 | pIC50 | 5.62 |
| COc1cnc(NS(=O)(=O)c2ccc(N=C3C=C(Nc4ccc(S(=O)(=O)Nc5ncc(OC)cn5)cc4)C(=O)c4ccccc43)cc2)nc1 | pIC50 | 4.91 |
| Cc1ccnc(NS(=O)(=O)c2ccc(N=C3C=C(Nc4ccc(S(=O)(=O)Nc5nccc(C)n5)cc4)C(=O)c4ccccc43)cc2)n1 | pIC50 | 4.78 |
| Cc1cc(C)nc(NC(=O)c2ccc(N=C3C=C(Nc4ccc(C(=O)Nc5cc(C)cc(C)n5)cc4)C(=O)c4ccccc43)cc2)c1 | pIC50 | 5.85 |

A. O=C1C(Nc2ccc(S(=O)(=O)Nc3ccccn3)cc2)=CC(=Nc2ccc(S(=O)(=O)Nc3ccccn3)cc2)c2ccccc21
B. Cc1cc(C)nc(NS(=O)(=O)c2cccc(N=C3C=C(Nc4cccc(S(=O)(=O)Nc5cc(C)cc(C)n5)c4)C(=O)c4ccccc43)c2)c1
Asked: When the recorded pIC50 values are compared, which is smaller: that of A or that of B ? Select an item and report its label.
Given back: A

###

biological target: PKC isoenzyme γ (Homo sapiens); construct: made in house; host or cells: baculovirus-insect cell expression system; assay: Protein kinase C inhibition assay, PKC isoenzyme γ; type: biochemical; details: read-out: IC50 PKC γ
measured metric: IC50 (µM)

Field: example entries. Status: answers known.
| compound | IC50 [µM] |
| --- | --- |
| Cc1ccnc(NS(=O)(=O)c2ccc(N=C3C=C(Nc4ccc(S(=O)(=O)Nc5nccc(C)n5)cc4)C(=O)c4ccccc43)cc2)n1 [Compound 3f] | 29 |
| Cc1noc(NS(=O)(=O)c2ccc(N=C3C=C(Nc4ccc(S(=O)(=O)Nc5onc(C)c5C)cc4)C(=O)c4ccccc43)cc2)c1C [Compound 6b] | 29 |
| O=C1C(Nc2ccc(S(=O)(=O)Nc3ncccn3)cc2)=CC(=Nc2ccc(S(=O)(=O)Nc3ncccn3)cc2)c2ccccc21 [Compound 6k] | 16 |

P. O=C1C(Nc2ccc(S(=O)(=O)NCc3ccccn3)cc2)=CC(=Nc2ccc(S(=O)(=O)NCc3ccccn3)cc2)c2ccccc21 [Compound 6n]
Q. Cc1ccnc(NS(=O)(=O)c2ccc(N=C3C=C(Nc4ccc(S(=O)(=O)Nc5nccc(C)n5)cc4)C(=O)c4ccccc43)cc2)n1 [Compound 6f]
Asked: Smaller IC50 value? Options are P and Q Answer format: the label of the selected item.
Given back: Q
(Q: 18 µM, P: 44 µM)

###

biological target: PKC isoenzyme γ (Homo sapiens, UniProt P05129); construct: made in house; host or cells: baculovirus-insect cell expression system; test: Protein kinase C inhibition assay, PKC isoenzyme γ; type: biochemical; conditions: read-out: IC50 PKC γ
pIC50: −log10 of the molar value.
measured metric: pIC50

| compound | pIC50 |
| --- | --- |
| O=C1C(Nc2ccc(S(=O)(=O)Nc3cnc4ccccc4n3)cc2)=CC(=Nc2ccc(S(=O)(=O)Nc3cnc4ccccc4n3)cc2)c2ccccc21 [Compound 6m] | 5.00 |

P. Cc1cc(NS(=O)(=O)c2ccc(N=C3C=C(Nc4ccc(S(=O)(=O)Nc5cc(C)nc(C)n5)cc4)C(=O)c4ccccc43)cc2)nc(C)n1 [Compound 6d]
Q. CCCCCCCCCCCCCCCCNS(=O)(=O)c1ccc(N=C2C=C(Nc3ccc(S(=O)(=O)NCCCCCCCCCCCCCCCC)cc3)C(=O)c3ccccc32)cc1 [Compound 6o]
Asked: In the pair P and Q , the larger recorded pIC50 belongs to which? # respond with the chosen item's label
Given back: P

P. Cc1cc(C)nc(NC(=O)c2ccc(N=C3C=C(Nc4ccc(C(=O)Nc5nc(C)cc(C)n5)cc4)C(=O)c4ccccc43)cc2)n1
Q. Cc1cc(C)nc(NS(=O)(=O)c2cc(N=C3C=C(Nc4ccc(C)c(S(=O)(=O)Nc5cc(C)cc(C)n5)c4)C(=O)c4ccccc43)ccc2C)c1 [Compound 6ag]
Asked: Which is greater in pIC50, the first item P or the second item Q ? Provide the label of your selected option as the answer.
Given back: P
(P: 5.05, Q: 4.80)

a. O=C1C(Nc2ccc(S(=O)(=O)Nc3ccccn3)cc2)=CC(=Nc2ccc(S(=O)(=O)Nc3ccccn3)cc2)c2ccccc21 [Compound 6i]
b. Cc1cc(C)nc(NS(=O)(=O)c2ccc(N=C3C=C(Nc4ccc(S(=O)(=O)Nc5cc(C)cc(C)n5)cc4)C(=O)c4ccccc43)cc2)c1
Asked: Please tell me which of the two, a or b , has the higher reported pIC50 value. Write down the label attached to your selection.
Given back: a
(a: 5.00, b: 4.06)

a. O=C1C(Nc2ccc(S(=O)(=O)Nc3cnc4ccccc4n3)cc2)=CC(=Nc2ccc(S(=O)(=O)Nc3cnc4ccccc4n3)cc2)c2ccccc21 [Compound 3m]
b. COc1cnc(NS(=O)(=O)c2ccc(N=C3C=C(Nc4ccc(S(=O)(=O)Nc5ncc(OC)cn5)cc4)C(=O)c4ccccc43)cc2)nc1 [Compound 6h]
Asked: Which record shows the lower pIC50: the first, a , or the second, b ? The response must carry the label of the picked entry.
Given back: b
(b: 4.39, a: 4.85)
